Tested on: WT Max(13-93) synthetic (M65Nle)
experimental.details: PBM 8-mer E-score (E-score (rank enrichment, -0.5 to 0.5)); higher = stronger preferential binding
In all, about 33,000 sequences were measured (“E-score (rank enrichment, -0.5 to 0.5)”: median about -0.0075, highest 2% from about 0.23 on). What follows is part of a selection rich in the highest values, with near analogues and random picks from the rest.
readout.kind: PBM 8-mer E-score

See these solved cases before continuing.
# sequence.code, PBM 8-mer E-score
data = [
    ("AAAATATA", 0.254),
    ("GAAATATA", 0.219),
]

Q. Look up PBM 8-mer E-score: AACGCGTG
A. 0.222

Q. Param item = GCGGCCGA ; retrieve measured PBM 8-mer E-score.
A. -0.21

Q. Entry CAAATATA : reported PBM 8-mer E-score = ?
A. 0.137

Q. I am curious: what PBM 8-mer E-score value has been reported for AGTCTGTG ?
A. -0.264

Q. Param item = AACGCGTC ; retrieve measured PBM 8-mer E-score.
A. -0.0583

# credit: the supplement of paper PMC12636033
